- Target under test: human histamine H3 receptor (Homo sapiens)
- Construct: One microgram of supercoiled H3 receptor cDNA was added to the cells and mixed; expressed in transfected cells; membranes prepared from cell pellets
- Assay info: {3H}-N-methylhistamine binding
- Assay setup: membranes of histamine H3 receptor-expressing SK-N-MC cells; 0.8 nM {3H}-N-methylhistamine; 45 min at 25° C.; […]
pKi: −log10 of the molar value.
Measurement kind: pKi

CC(C)N1CCN(Cc2ccc(C(=O)N3CCN(C(C)C)CC3)cc2)CC1; 7.74

###

- Target under test: human histamine H3 receptor (Homo sapiens, UniProt Q9Y5N1)
- Construct: One microgram of supercoiled H3 receptor cDNA was added to the cells and mixed; expressed in transfected cells; membranes prepared from cell pellets
- Sequence (Q9Y5N1 whole entry): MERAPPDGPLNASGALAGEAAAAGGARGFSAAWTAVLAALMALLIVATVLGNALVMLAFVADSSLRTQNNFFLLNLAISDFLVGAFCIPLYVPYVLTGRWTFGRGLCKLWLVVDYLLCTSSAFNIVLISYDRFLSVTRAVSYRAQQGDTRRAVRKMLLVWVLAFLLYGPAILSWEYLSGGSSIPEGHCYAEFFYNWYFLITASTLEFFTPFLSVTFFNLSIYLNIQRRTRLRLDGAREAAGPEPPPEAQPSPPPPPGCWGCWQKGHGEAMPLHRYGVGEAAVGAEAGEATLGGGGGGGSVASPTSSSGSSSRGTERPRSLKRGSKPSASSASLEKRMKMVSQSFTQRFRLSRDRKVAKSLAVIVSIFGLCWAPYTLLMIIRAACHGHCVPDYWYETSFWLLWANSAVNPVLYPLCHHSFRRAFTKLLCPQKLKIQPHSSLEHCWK
- Assay info: {3H}-N-methylhistamine binding
Where a name gives a salt, the structure may show the parent alone.
Measurement kind: Ki (nM)

CCC(CC)N1CCN(C(=O)c2ccc(CNCc3ccccc3)cc2)CC1; 2
CCC(CC)N1CCN(C(=O)c2ccc(CNc3ccc(C(F)(F)F)cc3)cc2)CC1 [Example 47, dihydrochloride]; 81
CN1CCN(C(=O)c2cccc(CN3CCC(Cc4ccccc4)CC3)c2)CC1; 800
COCC(C)NCc1ccc(C(=O)N2CCN(C(C)C)CC2)cc1 (centres unmarked); 3
CCC(C)N1CCN(C(=O)c2ccc(CN(C)C)cc2)CC1 (centres unmarked); 1.5
CC(C)N1CCN(C(=O)c2ccc(CNCc3ccccc3)cc2)CC1 [Example 58, dihydrochloride]; 3
CC(C)N1CCN(C(=O)c2ccc(CN(C)C)cc2)CC1 [Example 62, dihydrochloride]; 5
CC(C)N1CCN(C(=O)c2ccc(CN3CCCCCC3)cc2)CC1 [Example 60, dihydrochloride]; 1
